Readings of OD450 for the listed binders
Target desc: Peptide 1: Biotin-…-[Tyr(PC)]-acid
Sequence (peptide, as listed by the source): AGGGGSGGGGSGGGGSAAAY
Measurement notes: scFv ELISA
State the answer as a number, implicitly in OD450.

// below: answered binders
PcOxP_DB02_C09 (scFv, V domains shown, scFv in periplasmic extract) VH: EVQLLESGGGLVQPGGSLRLSCAASGFTFSDAYMEWVRQAPGKGLEWVAASRNKANDYTTEYADSVKGRFTISRDNSKNTLYLQMNSLRAEDTAVYYCARDYYGSSYWYFDVWGQGTLVTVSS VL: DIQMTQSPSSLSASVGDRVTITCTASESLYSSKHKVHYLAWYQQKPGKAPKLLIYGAGNRYIGVPSRFSGSGSGTDFTLTISSLQPEDFATYYCAQFYFYPLTFGGGTKVEIK: 0.69
PcOxP_DB03_E07 (scFv, V domains shown, scFv in periplasmic extract) VH: EVQLLESGGGLVQPGGSLRLSCAASGFTFSDNYMEWVRQAPGKGLEWVAASRNKANDYTNEYADSVKGRFTISRDNSKNTLYLQMNSLRAEDTAVYYCARDYYGSSYWYFDVWGQGTLVTVSS VL: DIQMTQSPSSLSASVGDRVTITCTASESLYSSKHKVHYLAWYQQKPGKAPKLLIYGASNRYIGVPSRFSGSGSGTDFTLTISSLQPEDFATYYCAQFYSYPLTFGGGTKVEIK: 0.78
PcOxP_DB02_C02 (scFv, V domains shown, scFv in periplasmic extract) VH: EVQLLESGGGLVQPGGSLRLSCAASGFTFSDFYMEWVRQAPGKGLEWVAASRNKANDYTVEYADSVKGRFTISRDNSKNTLYLQMNSLRAEDTAVYYCARDYYGHSYWYFDVWGQGTLVTVSS VL: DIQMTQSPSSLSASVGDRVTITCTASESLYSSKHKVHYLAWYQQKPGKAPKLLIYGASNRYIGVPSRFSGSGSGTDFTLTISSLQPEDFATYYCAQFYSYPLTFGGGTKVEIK: 0.35
PcOxP_DB01_E04 (scFv, V domains shown, scFv in periplasmic extract) VH: EVQLLESGGGLVQPGGSLRLSCAASGFTFSDAYMEWVRQAPGKGLEWVAASRNKANDYTTEYADSVKGRFTISRDNSKNTLYLQMNSLRAEDTAVYYCARDYYGSSYWYFDTWGQGTLVTVSS VL: DIQMTQSPSSLSASVGDRVTITCTASESLYSSKHKVHYLAWYQQKPGKAPKLLIYGASNRYDGVPSRFSGSGSGTDFTLTISSLQPEDFATYYCAQFYSYPLTFGGGTKVEIK: 0.55

--- query ---
Query string: State the recorded OD450 for this entry: PcOxP_DB01_D06 (scFv, V domains shown, scFv in periplasmic extract) VH: EVQLLESGGGLVQPGGSLRLSCAASGFTFSDFYMEWVRQAPGKGLEWVAASRNKANDYTTEYADSVKGRFTISRDNSKNTLYLQMNSLRAEDTAVYYCARDYYGSSYWYFDSWGQGTLVTVSS VL: DIVMTQSPDSLAVSLGERATINCTASESLYSSKHKVHYLAWYQQKPGQPPKLLIYGASNRYIGVPDRFSGSGSGTDFTLTISSLQAEDVAVYYCAQFYIYPLTFGGGTKVEIK
Result string: 0.41
